self-splicing fitness (ln) for assorted sequences
MEASUREMENT DESCRIPTION: self-splicing fitness, log relative to wild type (ln ratio); higher = more splicing; Tetrahymena group I intron in knt gene, E. coli kanamycin selection, DiMSum; sequences stand for … in CUCUCU…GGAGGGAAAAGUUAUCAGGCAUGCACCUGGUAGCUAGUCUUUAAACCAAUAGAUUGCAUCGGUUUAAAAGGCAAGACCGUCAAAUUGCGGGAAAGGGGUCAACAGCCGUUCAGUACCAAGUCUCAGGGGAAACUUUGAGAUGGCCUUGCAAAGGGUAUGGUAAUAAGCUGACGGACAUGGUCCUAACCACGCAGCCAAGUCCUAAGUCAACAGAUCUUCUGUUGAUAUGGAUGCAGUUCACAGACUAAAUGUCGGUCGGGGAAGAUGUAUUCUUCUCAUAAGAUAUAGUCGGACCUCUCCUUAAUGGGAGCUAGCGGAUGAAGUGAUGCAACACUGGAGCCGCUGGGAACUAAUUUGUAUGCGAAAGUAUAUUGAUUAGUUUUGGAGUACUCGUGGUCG;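 also: selection with 25 µg/mL kanamycin versus none on LB agar overnight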
EXPERIMENTAL PARAMETERS: 30 °C
QUANTITY KIND: self-splicing fitness (ln)

[[record]]
sequence_code = "UCUUAGCAAUAUUACGCAUG"
reported = -1.98

[[record]]
sequence_code = "ACGCAGCAAUAUUACGCUCA"
reported = -0.563

[[record]]
sequence_code = "UUCCAGCAAUAUUACGGAAA"
reported = -1.86

[[record]]
sequence_code = "CCUGAGCAAUAUUACGGUCA"
reported = -2.92

[[record]]
sequence_code = "GACUAGCAAUAUUACGGUGC"
reported = -2.65

[[record]]
sequence_code = "GAGCAGCAAUAUUACGACGG"
reported = -4.27

[[record]]
sequence_code = "CGGUAGCAAUAUUACGUGCU"
reported = -3.24

[[record]]
sequence_code = "GAGCAGCAAUAUUACGCAUC"
reported = -3.22

[[record]]
sequence_code = "UUGAAGCAAUAUUACGAACA"
reported = 0.602

[[record]]
sequence_code = "CCGAAGCAAUAUUACGUGGU"
reported = -4.68

[[record]]
sequence_code = "UAGAAGCAAUAUUACGUUCG"
reported = -0.157

[[record]]
sequence_code = "GCUGAGCAAUAUUACGCGGA"
reported = -4.07

[[record]]
sequence_code = "AAACAGCAAUAUUACGGGGU"
reported = -3.07

[[record]]
sequence_code = "ACCAAGCAAUAUUACGAACA"
reported = -2.91

[[record]]
sequence_code = "ACGCAGCAAUAUUACGACUU"
reported = -0.543

[[record]]
sequence_code = "ACCAAGCAAUAUUACGAGGG"
reported = -2.88

